Test system: A498 renal
Assay: NCI tumour cell line growth inhibition, 48 h
MEASURED_QUANTITY: TGI

Sample records with TGI:
COMPOUND: Cc1cc(N)ccc1C=O
ASSAY_VALUE: > 100 µM
--
COMPOUND: O=CC1C[C@@H](N2C(=O)O[C@@H](c3ccccc3)[C@H]2c2ccccc2)[C@@H]1COCc1ccccc1 (stereo partly specified)
ASSAY_VALUE: 49.2 µM
--
COMPOUND: COc1cccc2c(=O)c3c(sc12)c(NCCN(C)C)nc1ccccc13
ASSAY_VALUE: 2.93 µM
--
COMPOUND: N#CC(C#N)=C1SCC(=O)CS1
ASSAY_VALUE: > 100 µM
--
COMPOUND: COC(=O)/C=C(/C(=O)OC)c1c(C)cc2c(C)cc(C)cc(C)c1-2
ASSAY_VALUE: 70.3 µM
--
COMPOUND: O=C(n1c(=O)n(-c2ccc(Cl)cc2)c(=O)n1C(=O)C(Cl)(Cl)Cl)C(Cl)(Cl)Cl
ASSAY_VALUE: > 100 µM
--
COMPOUND: CC1=NN(C(=O)c2ccc(Cl)cc2)C(=O)/C1=C/c1ccc(O)cc1
ASSAY_VALUE: > 100 µM
--
COMPOUND: COC1=CC(=O)[C@]2(C)[C@H](C1=O)C(C)[C@H]2c1ccccc1 (stereo partly specified)
ASSAY_VALUE: > 100 µM
--
COMPOUND: C1=NCCNCCN=Cc2ccccc2OCc2cccc(n2)COc2ccccc21
ASSAY_VALUE: > 100 µM
--
COMPOUND: S=C(Nc1ccccc1)N(Cc1ccccc1)c1ccccc1
ASSAY_VALUE: 67.2 µM

Next up:
*Q* Give TGI for Clc1ccc(-c2nnc(C34CC5CC(CC(C5)C3)C4)o2)cc1
*A* > 100 µM

* * *

Test system: M19-MEL melanoma
Experiment: NCI tumour cell line growth inhibition, 48 h
Reported values of TGI for individual entries

Here's what some known entries look like.
COMPOUND: C=CCN=C1NC(=O)C(CC(=O)Nc2ccc(C)cc2)S1 (stereo not drawn)
ASSAY_VALUE: > 100 µM
--
COMPOUND: Cc1cc(=O)oc2cc(OCc3nc4ccccc4c(=O)[nH]3)ccc12
ASSAY_VALUE: > 100 µM
--
COMPOUND: O=C1c2c(nc3ccccc3c2-c2ccccc2)CN1Nc1ccccc1
ASSAY_VALUE: > 100 µM
--
COMPOUND: C/C(=N\NC(=S)NNC(=S)N(C)c1ccccc1)c1ccccn1
ASSAY_VALUE: 7.59 µM
--
COMPOUND: COc1ccccc1/C=N/N=C(\N)NO
ASSAY_VALUE: > 100 µM

*Q* Provide measured TGI value, entry: CC12CC3CC(C1)CC(N=[N+]=[N-])(C3)C2
*A* > 100 µM

*Q* Consider the compound C[CH2][Sn]([Cl])([Cl])[CH2]C . State its measured TGI.
*A* > 67.2 µM

*Q* Assign TGI to the following record: O=P1(O)c2ccccc2Nc2cc(C(F)(F)F)ccc21
*A* > 100 µM

*Q* Fill in reported TGI for this entry: Cc1ccc(S(=O)(=O)c2c3[nH]c4ccccc4nc3n3c2nc2ccccc23)cc1
*A* > 100 µM

* * *

Test system: OVCAR-4 ovarian
Experiment: NCI tumour cell line growth inhibition, 48 h
MEASURED_QUANTITY: TGI (µM)
Respond numerically; units are µM and should not be typed.

MOLECULE: COc1cc([N+](=O)[O-])c(OC)cc1-c1nc2sc(Cl)cn2c1/C=N/NC(=N)N/N=C/c1c(-c2cc(OC)c([N+](=O)[O-])cc2OC)nc2sc(Cl)cn12
TGI [µM]: 5.71

In the following, a different molecule is considered.
*Q* State, in one line, measured TGI of CCCCCCCSCC1C(=O)C23C(O)C1CCC2C12COC3(O)C(O)C1C(C)(C)CCC2O (centres undefined)
*A* 25.3
